# system: T1, hRAGE-Fc (human, UniProt Q15109 23-342, biotin label in the selections and HTRF assays)
# T1 construct: extracellular domain; also called biotin labeled hRAGE-Fc; Biotin-labeled RAGE-Fc; not shown: Fc part
# T1 sequence (Q15109 23-342): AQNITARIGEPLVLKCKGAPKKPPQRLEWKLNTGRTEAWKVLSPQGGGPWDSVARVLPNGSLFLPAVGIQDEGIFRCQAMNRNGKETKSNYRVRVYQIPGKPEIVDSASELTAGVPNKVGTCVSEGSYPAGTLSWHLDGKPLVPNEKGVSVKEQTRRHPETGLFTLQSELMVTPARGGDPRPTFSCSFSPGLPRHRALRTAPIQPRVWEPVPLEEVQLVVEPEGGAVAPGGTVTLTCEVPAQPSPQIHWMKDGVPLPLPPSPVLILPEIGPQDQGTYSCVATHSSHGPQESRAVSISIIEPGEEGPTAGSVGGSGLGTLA
# assay.overview: HTRF competition, scFv vs labelled parental XT-M4 (competitor) on biotin hRAGE-Fc
Below, each entry is listed with its recorded IC50.
API: value field is a number in nM; no unit string.

The following binders have reported results that may help.
[[record]]
binder = "S2R4A3_10H6 scFv (scFv, also called 10H6 (a)) scFv: DIQMTQSPSSLSASVGDGVTITCQASQDVGIYVNWFQQKPGKAPRRLIYRATNLADGVPSRFSGSRSGTDFTLTISSLQPEDFATYYCLEFDEHPLTFGGGTKVEIKNGGGSGGGGSGGGGSSEVQLVESGGGLVQPGGSLRLSCAASGFTFNNYWMTWVRQAPGKGLEWVASIDNSGDNTYYPDSVKDRFTISRDNAKNSLYLQMNSLRAEDTAVYYCARGGDITTGLDYWGQGTLVTESS"
measurement_name = "IC50"
value_measured = 0.3

[[record]]
binder = "S2R3A1_2E6 scFv (scFv, also called 2E6 (c)) scFv: DIQMTQSPSSLSASVGDRVTITCRASQDVGIYVNWFQQKPGKAPRRLIYRATNLADGVPSRFSGSRSGTDFTLTISSLQPEDFATYYCLEFDEHPLTFGGGTKVEIKDGGGSGGGGSGGGGNSEVQLVESGVGLVQPGGSLRLSCAASGFTFNNYWMTWVRQAPGKGLEWVASIDNSGDNTYYPDSVKDRFTISRDNAKNSLYLQMNSLRAEDTAVYYCARGGDITNGLDYWGQGTLVTVSS"
measurement_name = "IC50"
value_measured = 1.9


In one line, give reported IC50 of the entry S2R3A1_5H3 scFv (scFv) scFv: DIQMTQSPSSLSASVGDRVTITCRASQDVGIYVNWFQQKPGKAPRRLIDRATNLADGVPSRFSGSRSGTDFTLTISSLQPEDFATYYCLEFDEHPLTFGGGTKVEIKDGGGSGGGGSGGGGSSEVLLVESGGGLVQPGGSLRLSCAASGFTFNNYWMTWVRQAPGKGLEWVASIDNSGDNTYYPDSVKDRFTISRDNAKNSLYLQMNSLRAEDTAVYYCARGGDITTGFDYWGQGTLVTVSS .
8.2

In one line, give reported IC50 of the entry S2R4A4_1G6 scFv (scFv) scFv: DIQMTQSPSSLSASVGDRVTITCRASQDVGFYVNWFQQKPGKAPRRLIYRATNLADGVPSRFSGSRSGTDFTLTISSLQPEDFATYYCLEFDEHPLTFGGGTKVEIKDGGGSGGGGSGGGGSSEVQLVESGGGLVQPGGSLRLSCAASGFTFNNYWMTWVRQAPGKGLEWVASIDNSGDNTYYPDSVKDRFTISRDNAKNSLYLQMNSLRAEDTAVYYCARGGDITNGFDYWGQGTLVTVSS .
1.2

In one line, give reported IC50 of the entry S1R5A1_3B3 scFv (scFv) scFv: DIQMTQSPSSLSASVGDRVTITCRASQDVGFYVNWFQQKPGKAPRRLIYRATNLADGVPSRFSGSRSGTDFTLTISSLQPEDFATYYCLEFDEHPLTFGGGTKVEIKDGGGSGGGGSGGGGSSEVQLVESGGGLVQPGGSLRLSCAASGFTFNNYWMTWVRQAPGKGLEWVASIDNSGDNTYYPDSVKDRFTISRDNAKNSLYLQMNSLRAEDTAVYYCARGGDITTGLDYWGQGTLVTVSS .
2.2

Entry source: patent US20100143349A1
